- assay_target: T1, Tetrahymena thermophila MTA1 (TthMTA1), untagged
- T1 chain: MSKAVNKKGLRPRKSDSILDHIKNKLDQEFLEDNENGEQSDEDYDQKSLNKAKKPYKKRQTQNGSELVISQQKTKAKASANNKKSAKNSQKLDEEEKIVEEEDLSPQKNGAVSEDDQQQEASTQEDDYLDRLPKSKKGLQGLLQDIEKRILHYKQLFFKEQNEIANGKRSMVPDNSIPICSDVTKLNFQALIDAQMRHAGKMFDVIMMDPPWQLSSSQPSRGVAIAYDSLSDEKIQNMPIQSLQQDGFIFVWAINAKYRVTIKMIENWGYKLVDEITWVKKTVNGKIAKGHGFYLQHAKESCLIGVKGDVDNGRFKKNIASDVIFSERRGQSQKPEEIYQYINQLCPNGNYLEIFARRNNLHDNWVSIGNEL
- assay_method_text: GST pull-down
- condition_summary: chain shown with the change;; parent: 100
Provide the reported percent of parent of each item.
Answers are plain numbers, in %.

Look over these answered cases.
His6GST-Tthp1 L167A; L170A; L173A; I177A (protein) MSLKKGKFQHNQSKSLWNYTLSPGWREEEVKILKSALQLFGIGKWKKIMESGCLPGKSIGQIYMQTQRLLGQQSLGDFMGLQIDLEAVFNQNMKKQDVLRKNNCIINTGDNPTKEERKRRIEQNRKIYGLSAKQIAEIKLPKVKKHAPQYMTLEDIENEKFTNLEIATHAYNAKAEAVRRLAEQGETIAQPSIIKSLNNLNHNLEQNQNSNSSTETKVTLEQSGKKKYKVLAIEETELQNGPIATNSQKKSINGKRKNNRKINSDSEGNEEDISLEDIDSQESEINSEEIVEDDEEDEQIEEPSKIKKRKKNPEQESEEDDIEEDQEEDELVVNEEEIFEDDDDDEDNQDSSEDDDDDED : 0
His6GST-Tthp1 I177A (protein) MSLKKGKFQHNQSKSLWNYTLSPGWREEEVKILKSALQLFGIGKWKKIMESGCLPGKSIGQIYMQTQRLLGQQSLGDFMGLQIDLEAVFNQNMKKQDVLRKNNCIINTGDNPTKEERKRRIEQNRKIYGLSAKQIAEIKLPKVKKHAPQYMTLEDIENEKFTNLEILTHLYNLKAEAVRRLAEQGETIAQPSIIKSLNNLNHNLEQNQNSNSSTETKVTLEQSGKKKYKVLAIEETELQNGPIATNSQKKSINGKRKNNRKINSDSEGNEEDISLEDIDSQESEINSEEIVEDDEEDEQIEEPSKIKKRKKNPEQESEEDDIEEDQEEDELVVNEEEIFEDDDDDEDNQDSSEDDDDDED : 78
His6GST-Tthp1 L173A (protein) MSLKKGKFQHNQSKSLWNYTLSPGWREEEVKILKSALQLFGIGKWKKIMESGCLPGKSIGQIYMQTQRLLGQQSLGDFMGLQIDLEAVFNQNMKKQDVLRKNNCIINTGDNPTKEERKRRIEQNRKIYGLSAKQIAEIKLPKVKKHAPQYMTLEDIENEKFTNLEILTHLYNAKAEIVRRLAEQGETIAQPSIIKSLNNLNHNLEQNQNSNSSTETKVTLEQSGKKKYKVLAIEETELQNGPIATNSQKKSINGKRKNNRKINSDSEGNEEDISLEDIDSQESEINSEEIVEDDEEDEQIEEPSKIKKRKKNPEQESEEDDIEEDQEEDELVVNEEEIFEDDDDDEDNQDSSEDDDDDED : 78
His6GST-Tthp1 L167A (protein) MSLKKGKFQHNQSKSLWNYTLSPGWREEEVKILKSALQLFGIGKWKKIMESGCLPGKSIGQIYMQTQRLLGQQSLGDFMGLQIDLEAVFNQNMKKQDVLRKNNCIINTGDNPTKEERKRRIEQNRKIYGLSAKQIAEIKLPKVKKHAPQYMTLEDIENEKFTNLEIATHLYNLKAEIVRRLAEQGETIAQPSIIKSLNNLNHNLEQNQNSNSSTETKVTLEQSGKKKYKVLAIEETELQNGPIATNSQKKSINGKRKNNRKINSDSEGNEEDISLEDIDSQESEINSEEIVEDDEEDEQIEEPSKIKKRKKNPEQESEEDDIEEDQEEDELVVNEEEIFEDDDDDEDNQDSSEDDDDDED : 48

Next up:
Fill in the blank: the reported percent of parent of His6GST-Tthp1 L170A (protein) MSLKKGKFQHNQSKSLWNYTLSPGWREEEVKILKSALQLFGIGKWKKIMESGCLPGKSIGQIYMQTQRLLGQQSLGDFMGLQIDLEAVFNQNMKKQDVLRKNNCIINTGDNPTKEERKRRIEQNRKIYGLSAKQIAEIKLPKVKKHAPQYMTLEDIENEKFTNLEILTHAYNLKAEIVRRLAEQGETIAQPSIIKSLNNLNHNLEQNQNSNSSTETKVTLEQSGKKKYKVLAIEETELQNGPIATNSQKKSINGKRKNNRKINSDSEGNEEDISLEDIDSQESEINSEEIVEDDEEDEQIEEPSKIKKRKKNPEQESEEDDIEEDQEEDELVVNEEEIFEDDDDDEDNQDSSEDDDDDED is ____.
47
